Tested on: RXF 393 renal
Test: NCI-60 one-dose screen, 48 h (100 = growth as untreated, 0 = no growth, -100 = all killed)
Conditions: 10 µM unless noted
Compounds without any hit were thinned out: in the full panel of roughly 83,000, 20% have a hit.
As shown below, each of these compounds has a reported growth value.
observation type: growth (%)

INSERT INTO measurements (compound, test_result) VALUES
  ('O=C1Nc2ccccc2C12CC(c1ccccc1)=NN2 (stereo not given)', 90.6),
  ('N=S(=O)(NC(=O)c1ccc(Cl)cc1Cl)c1ccc(Br)s1 (stereo not given)', 91.7),
  ('CCN(CC)CCCNc1cccc2c(SCc3ccccc3)ccnc12', 88.4),
  ('COc1cc(C2CC(=O)Nc3c2c(C)nn3-c2nc3ccccc3[nH]2)cc(OC)c1OC (stereo not given)', 89.8),
  ('COc1ccc(-c2cc(NC(=O)Nc3ccc(O)cc3)no2)cc1', 90.9);

----------
Tested on: NCI-H226 lung
Experiment: NCI-60 one-dose screen, 48 h (100 = growth as untreated, 0 = no growth, -100 = all killed)
Settings: 10 µM unless noted
Compounds without any hit were thinned out: in the full panel of roughly 83,000, 20% have a hit.
observation type: growth (%)

INSERT INTO assay_data (record_smiles, observation_type, test_result) VALUES
  ('Cc1ccc2c(c1)C(=O)/C(=C/c1ccc(OCC(=O)c3ccccc3)cc1)O2', 'growth', 69.4),
  ('CCC(=O)Oc1ccc(/C(=C(\C)c2ccccc2)c2ccc(OCCN(CC)CC)cc2)cc1', 'growth', 95.8),
  ('CNC(=O)c1cc(Oc2ccc3nc(NC(=O)Nc4ccc(CN5CCOCC5)c(C(F)(F)F)c4)sc3c2)ccn1', 'growth', 17.3),
  ('CN(C)c1ccc(/C=C\C2=[N+](C)c3ccccc3C2(C)C)cc1', 'growth', 16.3),
  ('O=C(/C=C/c1cc2ccccc2[nH]c1=O)/C=C/c1cc2ccccc2[nH]c1=O', 'growth', -30.3),
  ('O=c1cc(-c2ccccc2)[nH]c2ccccc12', 'growth', 70.2),
  ('O=C(CO[N+](=O)[O-])Nc1ccc(C(=O)/C=C/c2ccc3c(c2)OCO3)cc1', 'growth', 107),
  ('COc1ccc(S(=O)(=O)NCCNc2nccc(-c3c(-c4cccc(N)c4)nc4sccn34)n2)cc1', 'growth', 96.1),
  ('Nc1cccc(-c2nc3sccn3c2-c2ccnc(NCCCNS(=O)(=O)c3ccc(C(F)(F)F)cc3)n2)c1', 'growth', 2.96),
  ('COc1ccc(-n2c(C)nc3c(c(C)nn3-c3ccccc3)c2=O)cc1', 'growth', 51.3);

----------
Tested on: A549/ATCC NSCLC
Assay: NCI-60 one-dose screen, 48 h (100 = growth as untreated, 0 = no growth, -100 = all killed)
Conditions: 10 µM unless noted
Protocol: Growth inhibition of the A549/ATCC human Non-Small Cell Lung tumor cell line is measured as a screen for anti-cancer activity. Cells are grown in 96 well plates and exposed to the test compound for 48 hours. Compounds are tested at a single concentration, which is 10^-5 M for most compounds. The reported endpoint is percent growth (GI% or GIPRCNT), where numbers from 0 - 100% represent growth inhibition, and numbers from -100% - 0 represent cell death. […]
Compounds without any hit were thinned out: in the full panel of roughly 83,000, 20% have a hit.
As shown below, each of these compounds has a reported growth value.
observation type: growth (%)

INSERT INTO assay_data (compound, observation_type, unit_text, test_result) VALUES
  ('Clc1ccc(-c2nnc(COc3ccccc3Cl)o2)cc1', 'growth', '%', 58.3),
  ('C/C(Cc1ccc(Cl)cc1)=C(\c1ccc(OCCN2CCCCCC2)cc1)c1ccc(OC(=O)Cc2ccccc2)cc1', 'growth', '%', 61.3),
  ('C=C1CC[C@@H]2[C@](C)(COC(C)=O)[C@H](OC(C)=O)CC[C@@]2(C)[C@@H]1CC(Nc1ccc(S(=O)(=O)Nc2ccc(Cl)nn2)cc1)C1=CCOC1=O (stereo partly drawn)', 'growth', '%', 61.6);

----------
Tested on: M14 melanoma
Assay: NCI-60 one-dose screen, 48 h
Settings: 10 µM unless noted
Compounds without any hit were thinned out: in the full panel of roughly 83,000, 20% have a hit. The source made the active and inactive calls. How the source made its calls: active means growth percent below 10; inactive means the rest.
Outcomes: True = active, False = inactive

INSERT INTO measurements (compound, system_under_test, category_label) VALUES
  ('Cn1c(=O)c2[nH]c(C(O)C(O)C(O)C(O)CO)nc2n(C)c1=O (stereo not drawn)', 'M14 melanoma', 'False'),
  ('OCC1C2C=CC(C2)C1CO (stereo not drawn)', 'M14 melanoma', 'False'),
  ('CCN(CC)CC#CCOC(=O)[C@]1(C)CCC[C@@]2(C)[C@H]1CC(C=O)=C1C=C(C(C)C)CC[C@@H]12', 'M14 melanoma', 'False'),
  ('Cc1ccc(N)cc1F', 'M14 melanoma', 'False'),
  ('C/C(=C(/c1ccc(O)cc1)c1ccc(OCCN2CCCC2)cc1)c1ccccc1', 'M14 melanoma', 'True'),
  ('COc1ccc(OCC(=O)Nc2ccc(-c3nc4ccccc4s3)cc2C)cc1', 'M14 melanoma', 'False'),
  ('CC(=O)Nc1ccc2c(c1)c(NC(C)=O)nn2C(=O)Nc1ccc(Cc2ccccc2)cc1', 'M14 melanoma', 'False'),
  ('CC/C=C\C[C@H](O)C/C=C1/C(=O)C=C[C@@H]1C/C=C\CCCC(=O)OC(C)C', 'M14 melanoma', 'True');

----------
System: DU-145 prostate
Test: NCI-60 one-dose screen, 48 h (100 = growth as untreated, 0 = no growth, -100 = all killed)
Details: 10 µM unless noted
The panel holds about 83,000 compounds, 20% with a hit somewhere; the sample as a whole holds those more often. Active and inactive are the calls of the source. Rule for the calls: active = growth percent below 10; inactive = the rest.
observation type: growth

INSERT INTO assay_data (molecule, test_result) VALUES
  ('O=C1CC(c2nc3ccccc3s2)CN1C1CCCCC1 (stereo not drawn)', '104% (inactive)'),
  ('Nc1cc2nc3ccccc3sc-2cc1=O', '21.5% (inactive)'),
  ('CCCCCCCCCCCCCC(=O)C(C)N (stereo not drawn)', '7.93% (active)');

----------
Tested on: MDA-MB-435 melanoma
Test: NCI-60 one-dose screen, 48 h (100 = growth as untreated, 0 = no growth, -100 = all killed)
Details: 10 µM unless noted
This is part of a sample that, as a whole, favours compounds with a hit. Of some 83,000 tested, about 20% had one in any assay.
As shown below, each of these compounds has a reported growth value.
observation type: growth (%)

INSERT INTO assay_data (record_smiles, test_result) VALUES
  ('C[C@@H]1CCC2=C(CCC[C@]2(C)C(=O)O)[C@@]1(C)CCc1ccoc1', 107),
  ('Cc1cc2cc3cc(C)c(N(C)C)cc3nc2cc1N(C)C', 29.1),
  ('O=C1C(=O)N(CCCCn2cc(CO)nn2)c2ccccc21', 98.9),
  ('COc1cnc2c(c1)C(=O)c1c-2n(CCCN2CCNCC2)c(=O)c2cc([N+](=O)[O-])ccc12', -92),
  ('CCCC(=O)Oc1ccc(/C(=C(/CC)Cc2ccccc2)c2ccc(OCCN3CCCC3)cc2)cc1', 57.1),
  ('OCCNCCNc1c2ccccc2nc2ccccc12', 89.4),
  ('COc1cc(/C=N\NC(=O)CN2CCN(c3cc4c(cc3F)c(=O)c(C(=O)N/N=C/c3ccc(O)c(OC)c3)cn4C3CC3)CC2)ccc1O', 55),
  ('COc1cc(-c2c3c(nc4c2c(C)nn4-c2ccccc2)-c2ccccc2C(=O)C3=O)cc(OC)c1OC', -0.815);

----------
Test system: KM12 colon
Experiment: NCI-60 one-dose screen, 48 h
Details: 10 µM unless noted
Procedure: Growth inhibition of the KM12 human tumor cell line is measured as a screen for anti-cancer activity. Cells are grown in 96 well plates and exposed to the test compound for 48 hours. Compounds are tested at a single concentration, which is 10^-5 M for most compounds. The reported endpoint is percent growth (GI% or GIPRCNT), where numbers from 0 - 100% represent growth inhibition, and numbers from -100% - 0 represent cell death. For example, a value of 40 represents 60% growth inhibition. […]
The panel holds about 83,000 compounds, 20% with a hit somewhere; the sample as a whole holds those more often. Calls of active or inactive are those of the source. The calls were made as follows: active = growth percent below 10; inactive = the rest.
Outcomes: true (1) = active, false (0) = inactive

INSERT INTO measurements (molecule, category_label) VALUES
  ('COc1ccc(-n2c(C)nc3c(c(C)nn3-c3ccccc3)c2=O)cc1', 'false (0)'),
  ('Clc1nc(Cl)c2c3c(sc2n1)CCCC3', 'false (0)'),
  ('COc1ccc(-c2nn(-c3ccccc3)cc2/C=C2\SC(=O)NC2=O)cc1', 'false (0)'),
  ('COc1cccc(-c2nc3sccn3c2-c2ccnc(NCCCNS(=O)(=O)c3ccc(Cl)cc3)c2)c1', 'false (0)'),
  ('O=C(O)C(O)C(O)C(=O)O.[NH-]C1CCCCC1[NH-].[Pt+2] (stereo unspecified)', 'false (0)'),
  ('COc1ccc(C2c3ccc4ccccc4c3Oc3ncnc(N)c32)cc1 (stereo unspecified)', 'false (0)'),
  ('O=c1c2cccc3c(Nc4c(F)cccc4F)ccc(c32)c2nc3ccccc3n12', 'false (0)'),
  ('COc1ccc(CN2C(=O)/C(=C\c3cc(OC)c(OC)c(OC)c3)c3cc(OC)ccc32)cc1', 'true (1)'),
  ('OCC1C2C=CC(C2)C1CO (stereo unspecified)', 'false (0)'),
  ('CN1CCN(Cc2ccc(NC(=O)c3[nH]ncc3Nc3ncnc4c3CCC4)cc2)CC1', 'true (1)'),
  ('Cc1noc(C)c1-c1cc(O)cc(C(O)c2ccccc2)c1 (stereo unspecified)', 'false (0)'),
  ('Cc1ccc(S(=O)(=O)N(CCc2ccc(Cl)cc2)S(=O)(=O)c2ccc(C)cc2)cc1', 'false (0)'),
  ('Cn1c2ccccc2c2c3c(c4c5ccccc5n(CCCCCC#N)c4c21)C(=O)N(O)C3=O', 'false (0)'),
  ('COC1C/C(=N\O)C2OC(c3ccccc3)OCC2O1 (stereo unspecified)', 'false (0)'),
  ('CC(=O)C1=C(O)C=C2Oc3c(C(=O)/C=C/c4c(Cl)cccc4Cl)c(O)c(C)c(O)c3[C@]2(C)C1=O', 'true (1)'),
  ('CC[C@H](Nc1cc(C)nc(N)n1)c1nc2cccc(NCc3ccc(C(=O)NO)cc3)c2c(=O)n1-c1ccccc1', 'false (0)'),
  ('O=C1C=CC(=O)N1c1ccc(Cc2ccc(N3C(=O)C=CC3=O)cc2)cc1', 'false (0)'),
  ('NCc1cn2cc(Cl)sc2n1', 'false (0)'),
  ('C=C1C(=O)O[C@H]2[C@H]1CC/C(Cn1cc(Cn3ccc4ccccc43)nn1)=C\CC[C@@]1(C)O[C@@H]21', 'false (0)'),
  ('CCN(CC)CC(C)Nc1ccc([N+](=O)[O-])c2sc3ccccc3c(=O)c12 (stereo unspecified)', 'false (0)'),
  ('CN1CCN(Cc2ccc(NC(=O)c3[nH]ncc3Nc3ncnc4[nH]ccc34)cc2)CC1', 'true (1)'),
  ('O=C1C[C@H](Sc2nc(-c3ccc(F)cc3)cc(C(F)(F)F)n2)[C@H]2CO[C@@H]1O2', 'false (0)'),
  ('O=C(/C=C/c1cc2ccccc2[nH]c1=O)/C=C/c1cc2ccccc2[nH]c1=O', 'true (1)'),
  ('Cc1ccc(S(=O)(=O)n2cc(-c3csc(-c4cn(C)c5ncccc45)n3)c3ccccc32)cc1', 'false (0)'),
  ('COC(/C=C/c1ccc([N+](=O)[O-])cc1)OC', 'false (0)'),
  ('O=C(/C=C/c1ccc(Cl)cc1)/C=C/c1cc2ccccc2[nH]c1=O', 'false (0)');
